B1: ADAMTS4 (parent)
chain: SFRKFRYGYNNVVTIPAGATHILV

# Variants of: B1
# test.protocol: protein stability index of a GFP-peptide fusion (GPS, HEK-293T) (PSI 1-6); higher = more stable;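 also: lentivirally expressed fusions sorted by FACS into six bins by GFP to DsRed ratio, PSI derived from sequencing read proportions per bin multiplied by bin number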
# assay.context: c terminus: a fixed tail appended
Record 1 whenever protein stability index is at 2 or higher; record -1 when lower.

[[record]]
polymer_sequence = "SFRKFRYGYNNSVTIPAGATHILV [V12S]"
cat = 1


Threshold query (protein stability index >= 2) on SFRKFRYGYDNVVTIPAGATHILV [N10D]
1

For SFRHFRYGYNNVVTIPAGATHILV [K4H] then?
1

Then what about the variant SFRKFRYGYNNVVTIPAGATHILD [V24D] ?
-1

Input SFRKFVYGYNNVVTIPAGATHILV [R6V]
1
